experiment: chemical genetic growth profiling, strain panel (AID 1159580);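 further: tested at 20 µM; growth read once vehicle control cultures reached saturation at 30 °C; 1 = growth at the plate median or of vehicle wells; lower values mean less growth of the strain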; conditions: S. cerevisiae deletion strains, growth OD, locus YDL040C, strain nat1, active compounds read low
Among all 5,500 compounds or so, about 2,000 (36%) were called active. Another 18% or so got no clear call; they are omitted. This is one part of the list. Where a SMILES comes first, the peptide text is derived from it.
recorded_endpoint: normalized growth
// print number alone

Prompt line: Could you share which normalized growth value was measured for NCCCCCC(=O)O ?
Response line: 0.997

Prompt line: Now try C[C@@H]1CC[C@H]2C(C)(C)C3CC12CC[C@@]3(C)O (some centres not stated) .
Response line: 0.952

Prompt line: Now try O=C1CCCN1CC#CCN1CCCC1 .
Response line: 1.01

Prompt line: Now try COC(=O)[C@@H]1OC(=O)C2OC23[C@@]1(C)CCC1[C@@]2(C)CCC(=O)C(C)(C)C2C[C@@H](OC(C)=O)[C@]13C (some centres not stated) .
Response line: 1.02

Prompt line: Now try Fc1ccc([C@@H]2CCNC[C@H]2COc2ccc3c(c2)OCO3)cc1 .
Response line: 0.992

Prompt line: Now try CC(=O)O[C@]1(C)CC[C@@]23CC1C(C)(C)[C@@H]2CC[C@H]3C .
Response line: 0.972

Prompt line: Now try O=C(O)CCCCCCCC(=O)O .
Response line: 0.999

Prompt line: Now try CC(=O)N[C@@H](CC(=O)O)C(=O)N[C@@H](CCC(=O)O)C(=O)O (Ac-Asp-Glu-OH) .
Response line: 0.998

Prompt line: Now try O=c1oc2ccccc2cc1O .
Response line: 0.994

Prompt line: Now try C=CCS(=O)C[C@H](N)C(=O)O (some centres not stated) .
Response line: 1.01

Prompt line: Now try CC(=O)N[C@@H](CCC(=O)O)C(=O)O .
Response line: 1.01

Prompt line: Now try NCCCCC(=O)O .
Response line: 1.02

###

assay: chemical genetic growth profiling, strain panel (AID 1159580);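 further: tested at 20 µM; growth read once vehicle control cultures reached saturation at 30 °C; 1 = growth at the plate median or of vehicle wells; lower values mean less growth of the strain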; conditions: S. cerevisiae deletion strains, growth OD, locus YMR263W, strain SAP30, active compounds read low
The campaign covered roughly 5,500 compounds. About 2,000 (36%) were called active. About 18% were inconclusive and are not listed. This is one part of the list.
What normalized growth was measured for each of the following?
// print number alone

Prompt line: Could you share which normalized growth value was measured for O=C(O)COc1ccc(Cl)cc1Cl ?
Response line: 1.01

Prompt line: Now try C[C@]12CCC3C(CC[C@H]4C[C@@H](O)CC[C@]34C)C1CC[C@@H]2O (stereo partly specified) .
Response line: 1.01

Prompt line: Now try O=c1oc2ccccc2cc1[N+](=O)[O-] .
Response line: 0.0584

Prompt line: Now try CC1(C)C(=O)[C@@H]2O[C@@H]2[C@@]2(C)C1C[C@@H](O)[C@]1(C)C2CC[C@@]2(C)[C@H](c3ccoc3)OC(=O)C3OC321 (stereo partly specified) .
Response line: 0.974

Prompt line: Now try CCC(C)C(=O)c1c(O)c(C)c2oc3c(C)c(O)c(C(=O)C(C)CC)c(O)c3c2c1O (stereo unspecified) .
Response line: 0.975

Prompt line: Now try CCOC(=O)c1cnn(-c2ccc(F)cc2)c1N .
Response line: 0.991

Prompt line: Now try Cc1cc(CC(=O)O)n(C)c1C(=O)c1ccc(Cl)cc1 .
Response line: 0.993

Prompt line: Now try C[C@]12CC[C@@H]3c4ccc(O)cc4CC[C@H]3[C@@H]1CCC2=O .
Response line: 1

Prompt line: Now try CC(=O)O[C@]1(C)CC[C@@]23CC1C(C)(C)[C@@H]2CC[C@H]3C .
Response line: 0.983

Prompt line: Now try C[C@]12CCC3c4ccc(OC(=O)CCC(=O)O)cc4CCC3C1CCC2=O (stereo partly specified) .
Response line: 0.971

Prompt line: Now try CN1CCCC1CCOC(C)(c1ccccc1)c1ccc(Cl)cc1 (stereo unspecified) .
Response line: 0.955

Prompt line: Now try c1ccc(-c2ccc(-c3csc(-c4cccnc4)n3)cc2)cc1 .
Response line: 0.992

Prompt line: Now try COc1ccccc1N1CCN(CCCCNS(=O)(=O)c2cccc3c(N(C)C)cccc23)CC1 .
Response line: 0.979

Prompt line: Now try CC(=O)O[C@H]1CC[C@@]2(C)C(C[C@@H](OC(C)=O)[C@]3(C)C2CC[C@@]2(C)[C@H](c4ccoc4)OC(=O)[C@H]4O[C@]423)C1(C)C (stereo partly specified) .
Response line: 1.02

Prompt line: Now try O=C(O)C(O)C(O)C(O)C(O)C(=O)O (stereo unspecified) .
Response line: 1

Prompt line: Now try COc1ccc(-c2nc(-c3ccc(-c4ccccc4)cc3)cs2)cc1 .
Response line: 1.01

Prompt line: Now try O=C1CCCN1CC#CCN1CCCC1 .
Response line: 1.01

Prompt line: Now try Cc1nnc(NS(=O)(=O)c2ccc(N)cc2)s1 .
Response line: 1.01

Prompt line: Now try COc1ccc(CCC(=O)c2c(O)cc(O[C@@H]3O[C@H](CO)C(O)[C@H](O)C3O[C@@H]3O[C@@H](C)[C@H](O)[C@@H](O)[C@H]3O)cc2O)cc1O (stereo partly specified) .
Response line: 0.989

Prompt line: Now try C[C@]12CCC3c4ccc(OC(=O)c5ccccc5)cc4CCC3C1CCC2=O (stereo partly specified) .
Response line: 0.997

Prompt line: Now try c1ccc(-c2csc(-c3cccnc3)n2)cc1 .
Response line: 0.873

All figures here come from PubChem BioAssay AID1159580.
